# Test system: Plasmodium falciparum
# measurement-notes: GSK_TCMDC: Inhibition of Plasmodium falciparum 3D7 in whole erythrocytes, using parasite LDH activity as an index of growth.
# Type: functional, organism-based
# protocol-conditions: Plasmodium falciparum, 3D7
Please provide measured XC50 for the entries that follow.
Respond with the bare value in nM.

Param item = CC(C)CNCc1ccc(-c2ccccc2CNC2CCN(Cc3ccccc3)CC2)cc1 ; retrieve measured XC50.
565

Param item = Cc1cc2nc(-c3ccc(C(=O)NCc4cccc(C(F)(F)F)c4)cc3)[nH]c2cc1C ; retrieve measured XC50.
807

Param item = Cn1cnc2c(Nc3ccncc3)nc(-c3ccc(OC(F)(F)F)cc3)nc21 ; retrieve measured XC50.
1100
